- target_system: 80S Ribosome
- method_description: Binding affinity to 80S ribosome in human HuH7 cells harboring human PCSK9 (1 to 152 residues)-proLuc assessed as inhibition of PCSK9 mRNA translation after overnight incubation by luciferase reporter gene assay
- Type: cell-based
- stated_conditions: huh-7
pIC50: −log10 of the molar value.
observed_property: pIC50

{"given_smiles": "O=C(N1CCC(c2ccccc2)CC1)N(c1nccc2ccccc12)[C@@H]1CCCNC1", "target_system": "80S Ribosome", "pIC50": 5.76}
{"given_smiles": "Cc1cccnc1N(C(=O)N1CCC(c2ccccc2)CC1)[C@@H]1CCCNC1", "target_system": "80S Ribosome", "pIC50": 5.69}

I: O=C(N1CCN(c2ccccc2)CC1)N(c1nccc2ccccc12)[C@@H]1CCCNC1
II: O=C(N1CCC(c2ccccc2)CC1)N(c1ncccc1Cl)[C@@H]1CCCNC1
III: Cc1ccc2c(N3CCN(C(=O)N(c4nccc5ccccc45)[C@@H]4CCCNC4)CC3)noc2c1
IV: Cc1cnc2c(c1)nnn2-c1ccc(CCC(=O)N(c2ncccc2Cl)[C@@H]2CCCNC2)nc1
Q: Order by pIC50, ascending. Arrange the labels as the request states and list them.
A: I, III, II, IV

---

- target_system: UniProt:Q12809
- Sequence (Q12809 whole entry): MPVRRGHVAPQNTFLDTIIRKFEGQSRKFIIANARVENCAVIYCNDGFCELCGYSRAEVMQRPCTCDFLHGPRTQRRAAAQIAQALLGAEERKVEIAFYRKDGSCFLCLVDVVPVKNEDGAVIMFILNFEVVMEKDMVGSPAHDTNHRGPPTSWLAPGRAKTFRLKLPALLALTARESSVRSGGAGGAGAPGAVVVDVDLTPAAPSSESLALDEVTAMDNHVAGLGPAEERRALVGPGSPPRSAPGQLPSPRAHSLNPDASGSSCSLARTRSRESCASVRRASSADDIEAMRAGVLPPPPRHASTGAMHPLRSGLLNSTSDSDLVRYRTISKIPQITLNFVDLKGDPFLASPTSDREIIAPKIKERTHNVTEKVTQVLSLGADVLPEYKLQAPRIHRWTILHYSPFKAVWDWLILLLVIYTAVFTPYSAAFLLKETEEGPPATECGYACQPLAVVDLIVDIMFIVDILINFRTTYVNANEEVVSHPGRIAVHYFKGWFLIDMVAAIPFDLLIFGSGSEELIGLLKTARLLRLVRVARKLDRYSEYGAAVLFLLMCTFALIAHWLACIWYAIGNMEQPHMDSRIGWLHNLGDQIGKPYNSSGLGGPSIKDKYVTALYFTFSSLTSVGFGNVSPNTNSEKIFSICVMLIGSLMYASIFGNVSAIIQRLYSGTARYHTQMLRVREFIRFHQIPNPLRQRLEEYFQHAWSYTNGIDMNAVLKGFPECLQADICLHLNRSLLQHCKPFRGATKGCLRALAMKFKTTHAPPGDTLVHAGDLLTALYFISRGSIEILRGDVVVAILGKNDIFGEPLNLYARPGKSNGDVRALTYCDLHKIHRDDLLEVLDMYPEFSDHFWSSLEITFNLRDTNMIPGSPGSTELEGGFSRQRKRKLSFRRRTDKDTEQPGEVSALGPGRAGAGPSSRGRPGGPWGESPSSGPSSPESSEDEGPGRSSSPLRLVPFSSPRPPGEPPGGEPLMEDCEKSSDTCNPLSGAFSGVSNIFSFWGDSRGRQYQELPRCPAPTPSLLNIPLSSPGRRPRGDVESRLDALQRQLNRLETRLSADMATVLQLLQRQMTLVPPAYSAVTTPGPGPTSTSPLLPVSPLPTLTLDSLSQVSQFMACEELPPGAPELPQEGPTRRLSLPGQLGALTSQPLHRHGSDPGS
Entries and their pKi values follow.
# pKi is unitless: minus log10 of the molar concentration; print number only

Below, 6 molecules whose answers are already recorded.
{"given_smiles": "Cc1cnc2c(c1)nnn2-c1ccc(CCC(=O)N(c2ncccc2Cl)[C@@H]2CCCNC2)nc1", "pKi": 5.23}
{"given_smiles": "O=C(N1CCN(c2ccccc2)CC1)N(c1nccc2ccccc12)[C@@H]1CCCNC1", "pKi": 5.04}
{"given_smiles": "Cc1nccnc1N(C(=O)N1CCC(c2ccccc2)CC1)[C@@H]1CCCNC1", "pKi": 4.61}
{"given_smiles": "Cc1cccnc1N(C(=O)N1CCC(c2ccccc2F)CC1)[C@@H]1CCCNC1", "pKi": 5.01}
{"given_smiles": "Cn1ccc2ccnc(N(C(=O)N3CCC(c4ccccc4)CC3)[C@@H]3CCCNC3)c21", "pKi": 5.24}
{"given_smiles": "O=C(N1CCC(c2ccccc2)CC1)N(c1ncccc1Cl)[C@@H]1CCCNC1", "pKi": 4.84}

Q: Recorded pKi for O=C(N1CCC(c2ccccc2)CC1)N(c1nccc2ccccc12)[C@@H]1CCCNC1 , please?
A: 5.39

Q: Recorded pKi for Cc1ccc2c(N3CCN(C(=O)N(c4nccc5ccccc45)[C@@H]4CCCNC4)CC3)noc2c1 , please?
A: 5.92

---

- method_description: Lipophilicity, log D of the compound by shake flask method
- Format: physicochemical
- stated_conditions: octanol/water
observed_property: logD

{"given_smiles": "Cc1cccnc1N(C(=O)N1CCC(c2ccccc2)CC1)[C@@H]1CCCNC1", "logD": 0.7}
{"given_smiles": "Cc1nccnc1N(C(=O)N1CCC(c2ccccc2)CC1)[C@@H]1CCCNC1", "logD": 0.3}
{"given_smiles": "Cn1ccc2ccnc(N(C(=O)N3CCC(c4ccccc4)CC3)[C@@H]3CCCNC3)c21", "logD": 1.4}

I: Cc1cnc2c(c1)nnn2-c1ccc(CCC(=O)N(c2ncccc2Cl)[C@@H]2CCCNC2)nc1
II: O=C(N1CCC(c2ccccc2)CC1)N(c1nccc2ccccc12)[C@@H]1CCCNC1
Q: Lower value of logD belongs to which: I or II ? Mark your answer with the label of the selected entry.
A: I
(I: 0.7, II: 1.4)

1: Cc1cccnc1N(C(=O)N1CCC(c2ccccc2F)CC1)[C@@H]1CCCNC1
2: Cc1ccc2c(N3CCN(C(=O)N(c4nccc5ccccc45)[C@@H]4CCCNC4)CC3)noc2c1
3: Cc1cccnc1N(C(=O)N1CCC(c2cnn3cccnc23)CC1)[C@@H]1CCCNC1
Q: Order by logD, ascending. Arrange the labels as the request states and list them.
A: 3, 1, 2
